Experiment: Genotoxicity in Salmonella typhimurium TA1535 harboring pSK1002 assessed as umu gene induction at 0.001 mg/ml in presence of Sprague-Dawley rat liver S9 fraction metabolic activation by SOS/umu assay relative to control
Type: toxicity, subcellular
Conditions: salmonella enterica subsp. enterica serovar typhimurium, read-out: FC
endpoint_name: fold induction at 0.001 mg/ml

[
  {
    "molecule_smiles": "O=C(CCN1CCN(c2ccc(Cl)cc2)CC1)c1ccc(O)cc1",
    "result": 0.76
  }
]

Ask | Can you look up the measured fold induction at 0.001 mg/ml of O=C(CCN1CCN(c2ccc(C(F)(F)F)cc2)CC1)c1ccc(O)cc1 for me?
Reply | 0.82
